- Target Of Assay: T1, wild type 2Ig-B7H3-mFc (human, UniProt Q5ZPR3-2 29-248, limits assumed)
- T1 construct: Q5ZPR3 canonical entry is the 4Ig isoform; the 2Ig form is its shorter isoform; also called 2Ig-B7H3-Fc; WT 2Ig-B7H3-Fc; not shown: mouse Fc
- T1 sequence (looked up): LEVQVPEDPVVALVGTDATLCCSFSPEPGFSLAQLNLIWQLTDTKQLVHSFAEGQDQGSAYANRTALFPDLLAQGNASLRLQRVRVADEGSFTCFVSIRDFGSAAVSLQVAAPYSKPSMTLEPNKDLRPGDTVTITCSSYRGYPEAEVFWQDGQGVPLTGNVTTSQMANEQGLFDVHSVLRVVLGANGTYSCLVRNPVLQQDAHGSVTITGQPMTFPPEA
- Test Name: SPR, IgG on 2Ig-B7H3-mFc
# koff listing for each entry below

Binder: mouse/human chimeric 8H9 (ch8H9) IgG1 (antibody, V domains shown) VH: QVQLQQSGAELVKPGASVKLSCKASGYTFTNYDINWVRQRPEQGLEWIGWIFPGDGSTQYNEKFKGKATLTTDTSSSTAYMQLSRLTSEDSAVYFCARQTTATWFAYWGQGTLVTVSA VL: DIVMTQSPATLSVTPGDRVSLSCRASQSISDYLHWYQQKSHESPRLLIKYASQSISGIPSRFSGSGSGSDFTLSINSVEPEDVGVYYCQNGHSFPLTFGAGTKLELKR
Reported Measurement: 3.79e-05 s⁻¹

Now, please, on to the next binder.
INPUT: Assign koff to the following record: hu8H9 3.1 IgG1 (antibody, V domains shown, also called clone 3.1) VH: QVQLVQSGAEVVKPGASVKLSCKTSGYTFTNYDINWVRQRPGQGLEWIGWIFPGDDSTQYNEKFKGKATLTTDTSTSTAYMELSSLRSEDTAVYFCARQTTGTWFAYWGQGTLVTVSS VL: EIVMTQSPATLSVSPGERVTLSCRASQSISDYLYWYQQKSHESPRLLIKYASQSISGIPARFSGSGSGSEFTLTINSVEPEDVGVYYCQNGHSFPLTFGQGTKLELKR
OUTPUT: 0.000232 s⁻¹
